src = paper PMC5961234

Each item that follows carries a reported pKd.
Molecular target: human alpha-thrombin (Homo sapiens, UniProt P00734;P00734 328-363;364-622)
Assay: BLI
pKd: −log10 of the molar value.
Outcome Measure: pKd

>>> measured_number("GGTTGGTGTGGTTGG (structured_DNA, T4 and T12 = W, 5-(indolyl-3-acetyl-3-amino-1-propenyl)-2'-deoxyuridine (written T)) [T4WT12W]")
9.51
>>> measured_number("GGTTGGTGTGGTTGG (structured_DNA, T12 = W, 5-(indolyl-3-acetyl-3-amino-1-propenyl)-2'-deoxyuridine (written T)) [T12W]")
8.89
>>> measured_number("GGTTGGTGTGGTTGG (structured_DNA, T3 = W, 5-(indolyl-3-acetyl-3-amino-1-propenyl)-2'-deoxyuridine (written T)) [T3W]")
8.41
>>> measured_number("GGTTGGTGTGGTTGG (structured_DNA, none) [TBA]")
8.55
>>> measured_number("GGTTGGTGTGGTTGG (structured_DNA, T4 = W, 5-(indolyl-3-acetyl-3-amino-1-propenyl)-2'-deoxyuridine (written T)) [T4W]")
9.00
>>> measured_number("GGTTGGTGTGGTTGG (structured_DNA, T4 = K, 5-(methyl-3-acetyl-3-amino-1-propenyl)-2'-deoxyuridine (written T)) [T4K]")
9.41
>>> measured_number("GGTTGGTGTGGTTGG (structured_DNA, T7 = W, 5-(indolyl-3-acetyl-3-amino-1-propenyl)-2'-deoxyuridine (written T)) [T7W]")
8.77
